system: Recombinant human LTC4 synthase (Homo sapiens, UniProt Q16873)
Construct: made in house; host or cells: Pichia pastoris
assay.comment: In vitro LTC4 synthase assay (LTA4 to LTC4, HTRF detection)
Type: biochemical
condition.details: value printed in the text of Example 4:1
recorded.endpoint: IC50 (nM)
Give a bare numeral; the unit nM is implied.

Quick check: IC50 on Recombinant human LTC4 synthase (Homo sapiens, UniProt Q16873), item CN(c1ccc(Cl)cc1)c1ccc(C(=O)c2cc(C(=O)O)cc([S+]([O-])c3ccc(F)c(F)c3)c2)cc1 (stereo not shown) ?
212

====

system: Recombinant human LTC4 synthase (Homo sapiens)
Construct: made in house; host or cells: Pichia pastoris
Sequence (Q16873 1-150): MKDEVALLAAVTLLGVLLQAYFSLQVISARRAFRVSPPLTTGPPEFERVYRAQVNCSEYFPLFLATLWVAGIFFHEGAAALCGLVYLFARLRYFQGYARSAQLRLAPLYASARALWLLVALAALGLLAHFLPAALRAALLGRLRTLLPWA
assay.comment: In vitro LTC4 synthase assay (LTA4 to LTC4, HTRF detection)
Format: biochemical
condition.details: 5 min; total concentration of title compounds in the assay 10 μM
Description: In the assay, LTC4 synthase catalyses the reaction where the substrate LTA4 is converted to LTC4. Recombinant human LTC4 synthase is expressed in Piccia pastoralis and the purified enzyme is dissolved in 25 mM tris-buffer pH 7.8 supplemented with 0.1 mM glutathione (GSH) and stored at −80° C. The assay is performed in phosphate buffered saline (PBS) pH 7.4 and 5 mM GSH in 384-well plates. […] 1. […] 10 μL of the incubation mixture is analysed using homogenous time resolved fluorescent (HTRF) detection.
recorded.endpoint: inhibition at 10 µM
Hey, just the number and the unit after it is fine.

Below: 6 compounds and their reported inhibition at 10 µM.
CCCCCCSc1ccc(C(=O)c2ccc(N(C)c3ccc(Cl)cc3)cc2)cc1C(=O)O    99%
CN(c1ccc(Cl)cc1)c1ccc(C(=O)c2ccc([S+]([O-])c3ccc(F)c(F)c3)c(C(=O)O)c2)nc1 (stereo not shown)    99%
CN(c1ccc(Cl)cc1)c1ccc(C(=O)c2ccc([S+]([O-])c3ccc(F)c(F)c3)c(C(=O)O)c2)cc1 (stereo not shown)    100%
CN(c1ccc(Cl)cc1)c1ccc(C(=O)c2ccc(S(=O)(=O)c3ccc(Cl)cc3)c(C(=O)O)c2)cc1    98%
CN(c1ccc(Cl)cc1)c1ccc(C(=O)c2ccc(Sc3cccc(Cl)c3)c(C(=O)O)c2)cc1    98%
CCCCCC[S+]([O-])c1ccc(C(=O)c2ccc(N(C)c3ccc(Cl)cc3)cc2)cc1C(=O)O (stereo not shown)    100%

Proceed to the following item.
Which inhibition at 10 µM reading was recorded for the compound CCCCCCS(=O)(=O)c1ccc(C(=O)c2ccc(N(C)c3ccc(Cl)cc3)cc2)cc1C(=O)O ?
97%

====

Reported inhibition at 10 µM by item:
system: Recombinant human LTC4 synthase (Homo sapiens)
Construct: made in house; host or cells: Pichia pastoris
assay.comment: In vitro LTC4 synthase assay (LTA4 to LTC4, HTRF detection)
Format: biochemical
condition.details: 5 min; total concentration of title compounds in the assay 10 μM
Procedure: In the assay, LTC4 synthase catalyses the reaction where the substrate LTA4 is converted to LTC4. Recombinant human LTC4 synthase is expressed in Piccia pastoralis and the purified enzyme is dissolved in 25 mM tris-buffer pH 7.8 supplemented with 0.1 mM glutathione (GSH) and stored at −80° C. The assay is performed in phosphate buffered saline (PBS) pH 7.4 and 5 mM GSH in 384-well plates. […] 1. […] 10 μL of the incubation mixture is analysed using homogenous time resolved fluorescent (HTRF) detection.
Give a bare numeral; the unit % is implied.

Below: 2 compounds and their reported inhibition at 10 µM.
CCCCCC[S+]([O-])c1ccc(C(=O)c2ncc(N(C)c3ccc(Cl)cc3)cn2)cc1C(=O)O (stereo not drawn) [Example 1:21]    99
CN(c1ccc(Cl)cc1)c1ccc(C(=O)c2ccc([S+]([O-])c3ccc(Cl)cc3)c(C(=O)O)c2)cc1 (stereo not drawn) [Example 1:2]    100

Proceed to the following item.
Which inhibition at 10 µM reading was recorded for the compound CN(c1ccc(Cl)cc1)c1ccc(C(=O)c2ccc(Sc3ccc(F)c(F)c3)c(C(=O)O)c2)cc1 [2:3] ?
96
